- Test system: Yap1 mRNA
- test_method_notes: Dose-dependent inhibition of human Yap1 in A-431 cells (Example 8, 10,000 cells per well, RTS4814)
- Assay type: cell-based
- assay_setup: A-431 cells, free uptake, approximately 48 hours, RTS4814; linear regression on log/linear plot
Strand notation (5' to 3'): a small letter for the sugar, then the base; units joined by * are phosphorothioate-linked, units joined directly phosphodiester-linked; [ ] holds rarer units or linkages, { } end groups; capitals alone tell only the bases. k = constrained ethyl (cEt); [5mC] = 5-methylcytosine; d = 2'-deoxy (DNA)
measurement_label: IC50

stdin: Return reported IC50. Input substance: 1074407 (kT*kA*kA*dA*dG*dT*dA*dT*d[5mC]*dT*dT*dG*d[5mC]*kT*kG*kG; antisense) [compound 1074407]
stdout: < 20 nM

stdin: Could you please provide reported IC50 for 1075819 (kG*kT*kA*dT*dA*dT*d[5mC]*d[5mC]*dG*dT*dT*d[5mC]*dT*k[5mC]*kA*kT; antisense) [compound 1075819] ? Thanks!
stdout: < 20 nM

stdin: Complete the entry with IC50 for 1076465 (kG*k[5mC]*kT*dT*dA*dA*dG*dG*dA*dA*dT*dA*dT*kA*k[5mC]*kA; antisense) [compound 1076465]
stdout: 100 nM

stdin: State its IC50: 1074800 (k[5mC]*kA*kA*dA*dT*dA*dG*dT*dG*d[5mC]*dT*dT*dT*kG*kG*kA; antisense) [compound 1074800]
stdout: < 20 nM

stdin: Return value of IC50 for input 1074852 (kA*kA*kT*dT*dG*dT*dT*dA*dT*dG*dA*dT*dA*kG*kG*k[5mC]; antisense) [compound 1074852] , no commentary.
stdout: < 20 nM

stdin: Input 1074579 (DNA k[5mC]*k[5mC]*kA*d[5mC]*dT*dA*dT*dA*dA*dA*dG*d[5mC]*dT*kT*kA*kT) [compound 1074579] , output reported IC50.
stdout: < 20 nM
